target-or-system: T1, ZFP SBS#560 (synthetic)
T1 chain: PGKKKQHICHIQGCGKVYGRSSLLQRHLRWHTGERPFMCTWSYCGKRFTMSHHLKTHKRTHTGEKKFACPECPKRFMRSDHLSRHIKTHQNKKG
experimental-protocol: EMSA
experimental-parameters: tags: MBP fusion

| binder | unit-text | Kd |
| --- | --- | --- |
| GAGTGTGTGA (dsDNA) DNA 1: GAGTGTGTGA DNA 2: TCACACACTC | nM | 500 |
